# Test system: NQO1 activation in BEAS-2B cells
# methodNotes: BEAS-2B cellular MTT assay of NQO1 activation, 0% HSA
# Format: cell-based
# details: Homo sapiens, serum free, read-out: BEAS EC50 (nM) serum free
reportedEndpoint: EC50 (nM)
Record the value in nM, omitting the unit from your answer.

Cn1c2cc3cc(cnc31)CCCCCn1nnc3c(Cl)c(ccc31)C(CC(=O)O)c1ccc3c(c1)CN(CC3)C2=O (centres unmarked) on NQO1 activation in BEAS-2B cells gives EC50 = 5.8

NQO1 activation in BEAS-2B cells data for Cc1c2cnc3c1nnn3CCCCCc1ccc(c(F)c1)C(=O)N1CCc3ccc(cc3C1)C2CC(=O)O (centres unmarked) ; its EC50: 1.9

Case CC(C(=O)O)C1c2ccc3c(c2)CN(CC3)C(=O)c2ccc(cc2)OCCCCCn2nnc3cc1ccc32 (centres unmarked) , NQO1 activation in BEAS-2B cells, EC50 recorded as 2.9

Assay NQO1 activation in BEAS-2B cells, sample Cc1c2ccc3c1nnn3CCCCCc1cnc(c(F)c1)C(=O)N1CCc3ccc(cc3C1)C2CC(=O)O (centres unmarked) , EC50 read: 180

Result for O=C(O)CC1c2ccc(nc2)OCCCCCCOc2ccc(cc2)C(=O)N2CCc3ccc1cc3C2 (centres unmarked) , tested on NQO1 activation in BEAS-2B cells, EC50: 432

Known value: NQO1 activation in BEAS-2B cells EC50 of the compound Cc1cc2ccc1C(=O)N1CCc3ccc(cc3C1)C(CC(=O)O)c1cnc(cc1C)OCCCCO2 (centres unmarked) equals 216

Tested system NQO1 activation in BEAS-2B cells; EC50 recorded for Cc1c2ccc3c1nnn3CCCCCCc1ccc(cc1F)C(=O)N1CCc3ccc(cc3C1)C2CC(=O)O (centres unmarked) was 3.7

# EC50 measured on NQO1 activation in BEAS-2B cells for item Cc1c2ccc3c1nnn3CCCCOCc1ccc(c(F)c1)C(=O)N1CCc3ccc(cc3C1)C2CC(=O)O (centres unmarked) = 95.9

Kindly note: NQO1 activation in BEAS-2B cells, O=C(O)CC1c2ccc3c(c2)CN(CC3)C(=O)c2ncc(cc2F)OCCCCCCn2nnc3c(Cl)c1ccc32 (centres unmarked) , EC50 value reported: 118

NQO1 activation in BEAS-2B cells EC50 of O=C(O)CC1c2ccc(nc2)OCCCCOc2ccc(cc2C(F)(F)F)C(=O)N2CCc3ccc1cc3C2 (centres unmarked) is 471

Param item: Cc1c2ccc3c1nnn3CCCCCCc1ccc(cc1)C(=O)N1CCc3ccc(cc3C1)C2CC(=O)O (centres unmarked) ; param system: NQO1 activation in BEAS-2B cells; output EC50: 0.4

The reported EC50 value, NQO1 activation in BEAS-2B cells, for Cc1c2ccc3c1nnn3CCCCCCCc1ccc(cc1)C(=O)N1CCc3ccc(cc3C1)C2CC(=O)O (centres unmarked) reads 8.8

# value of EC50, NQO1 activation in BEAS-2B cells, item Cc1c2ccc3c1nnn3CCCCCOc1ccc(c3ccccc13)C(=O)N1CCc3ccc(cc3C1)C2CC(=O)O (centres unmarked) = 450

Item: Cc1c2ccc3c1nnn3CCCCCCOc1ccc(nn1)C(=O)N1CCc3ccc(cc3C1)C2CC(=O)O (centres unmarked) | System: NQO1 activation in BEAS-2B cells | EC50: 1460

Form: item Cc1cc2ccc1C(=O)N1CCc3ccc(cc3C1)[C@@H](CC(=O)O)c1ccc3c(nnn3CCCCCC2)c1C ; test system NQO1 activation in BEAS-2B cells; EC50: 1.1

EC50 for NQO1 activation in BEAS-2B cells with input Cc1c2cnc3c1nnn3CCCCCCOc1cc(F)c(c(F)c1)C(=O)N1CCc3ccc(cc3C1)C2CC(=O)O (centres unmarked) equals 14.2

Case Cc1c2ccc3c1nnn3CCCCCc1ccc(c(F)c1)C(=O)N1CCc3ccc(cc3C1)C2CC(=O)O (centres unmarked) , NQO1 activation in BEAS-2B cells, EC50 recorded as 2.1

Form field EC50 for item O=C(O)CC1c2ccc3c(c2)CN(CC3)C(=O)c2ccc(cc2C(F)(F)F)OCCCCCCn2nnc3cc1ccc32 (centres unmarked) on NQO1 activation in BEAS-2B cells: 910

Observed EC50, NQO1 activation in BEAS-2B cells, CC(C)(C(=O)O)C1c2ccc3c(c2)CN(CC3)C(=O)c2ccc(cc2)CCCCCCn2nnc3cc1ccc32 (centres unmarked) : 10.8

Noted EC50 for Cc1c2ccc3c1nnn3CCCCCOc1ccc(cc1F)C(=O)N1CCc3ccc(cc3C1)C2CC(=O)O (centres unmarked) , tested on NQO1 activation in BEAS-2B cells: 123

I looked up Cc1cc2ccc1C(=O)N1CCc3ccc(cc3C1)C(CC(=O)O)c1ccc(nc1C)OCCCCC2 (centres unmarked) and its EC50 for NQO1 activation in BEAS-2B cells was 74.3

So the reported EC50 for O=C(O)CC1c2ccc3c(c2)CN(CC3)C(=O)c2ccc(cc2F)CCCCCn2nnc3c(Cl)c1ccc32 (centres unmarked) , on NQO1 activation in BEAS-2B cells, turned out to be 0.6

Bench note, NQO1 activation in BEAS-2B cells: entry COc1cc2ccc1C(=O)N1CCc3ccc(cc3C1)C(CC(=O)O)c1ccc3c(nnn3CCCCCC2)c1C (centres unmarked) , its EC50 = 9.4

The compound Cc1cc2ccc1C(=O)N1CCc3ccc(cc3C1)C(CC(=O)O)c1cnc3c(nnn3CCCCCCO2)c1C (centres unmarked) on NQO1 activation in BEAS-2B cells: EC50 was 27.5

Case Cc1c2ccc3c1nnn3CCCCCC(F)(F)Oc1ccc(cc1)C(=O)N1CCc3ccc(cc3C1)C2CC(=O)O (centres unmarked) , NQO1 activation in BEAS-2B cells, EC50 recorded as 10.4

Short answer on NQO1 activation in BEAS-2B cells for Cc1c2ccc3c1nnn3CCCCCCn1ccc3ccc(cc31)C(=O)N1CCc3ccc(cc3C1)C2CC(=O)O (centres unmarked) , EC50: 3100

Value sought: EC50, system NQO1 activation in BEAS-2B cells, item Cc1c2ccc3c1nnn3CCCCCc1cnc(nc1)C(=O)N1CCc3ccc(cc3C1)C2CC(=O)O (centres unmarked) . Result: 2880

All values here come from patent US12692274B2.
